Biological target: LVDr + T184L HBV polymerase (Hepatitis B virus genotype D subtype ayw, UniProt P03156, L515M/M539V/T519L)
Construct: intracellular HBV nucleocapsids were isolated from HBV transfected HepG2 cells and used in endogenous polymerase assays
Sequence (P03156 whole entry L515M/T519L/M539V): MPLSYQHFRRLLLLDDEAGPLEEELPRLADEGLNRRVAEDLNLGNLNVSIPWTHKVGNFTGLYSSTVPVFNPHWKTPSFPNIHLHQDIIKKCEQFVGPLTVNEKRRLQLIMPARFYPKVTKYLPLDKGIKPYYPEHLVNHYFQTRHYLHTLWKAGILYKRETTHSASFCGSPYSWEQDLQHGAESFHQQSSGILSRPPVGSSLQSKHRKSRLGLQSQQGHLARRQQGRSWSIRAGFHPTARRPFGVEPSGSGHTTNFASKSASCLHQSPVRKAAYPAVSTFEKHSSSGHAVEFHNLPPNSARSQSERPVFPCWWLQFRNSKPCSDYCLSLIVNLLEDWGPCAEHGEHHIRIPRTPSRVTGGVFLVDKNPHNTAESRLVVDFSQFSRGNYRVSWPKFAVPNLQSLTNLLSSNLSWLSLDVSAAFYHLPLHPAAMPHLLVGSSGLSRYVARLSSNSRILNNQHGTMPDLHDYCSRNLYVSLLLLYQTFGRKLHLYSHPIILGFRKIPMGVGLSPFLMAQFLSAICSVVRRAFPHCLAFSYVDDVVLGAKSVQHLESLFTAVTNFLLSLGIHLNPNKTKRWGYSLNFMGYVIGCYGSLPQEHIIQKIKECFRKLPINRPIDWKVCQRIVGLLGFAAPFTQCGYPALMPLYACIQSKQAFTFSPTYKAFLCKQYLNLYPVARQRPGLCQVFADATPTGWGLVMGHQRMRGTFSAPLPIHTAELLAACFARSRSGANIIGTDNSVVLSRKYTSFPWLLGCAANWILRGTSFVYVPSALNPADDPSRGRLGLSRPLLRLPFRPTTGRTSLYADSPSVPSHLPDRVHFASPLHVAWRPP
Experiment: In vitro HBV polymerase assay (endogenous polymerase assay with nucleocapsids)
Settings: In vitro polymerase; LVDr + T184L; read-out: ETV-TP IC50, Average ± SD (Range)
pIC50: −log10 of the molar value.

[
  {
    "COMPOUND": "C=C1[C@H](COP(=O)(O)OP(=O)(O)OP(=O)(O)O)[C@@H](O)C[C@@H]1n1cnc2c(=O)[nH]c(N)nc21 [ETV-TP, ETV-triphosphate]",
    "pIC50": 6.43
  }
]
